# Tested on: Escherichia coli TOP10;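 note: peptides expressed intracellularly from a pBAD plasmid library in pooled LB shake-flask culture, induced with 0.3% L-arabinose, DNA abundance read by NGS, three biological replicates, DESeq2 with apeglm shrinkage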
# experiment-notes: shrunken log2 fold change of peptide-encoding DNA abundance (4.5 h post-induction vs induction); higher = less antimicrobial activity (less host growth inhibition)
# assay-context: time post-induction: 4.5 h; library: site-saturation at positions 5, 18, 19, 20
If the reported shrunken log2 fold change equals or exceeds 0.08, assign Fulfilled. If not, assign Not fulfilled.

// known answers, use as guide
RRIRVRPPRLPRPRPRPVMPPRP = Not fulfilled
RRIRARPPRLPRPRPRPTWRPRP = Fulfilled
RRIRLRPPRLPRPRPRPHLIPRP = Not fulfilled
RRIRWRPPRLPRPRPRPLKAPRP = Fulfilled
RRIRLRPPRLPRPRPRPFPLPRP = Not fulfilled
RRIRLRPPRLPRPRPRPVRLPRP = Fulfilled

// query Determine whether measured shrunken log2 fold change meets or exceeds 0.08 for "RRIRWRPPRLPRPRPRPQFCPRP"
// result Not fulfilled

// query Determine whether measured shrunken log2 fold change meets or exceeds 0.08 for "RRIRSRPPRLPRPRPRPTHWPRP"
// result Fulfilled

// query Determine whether measured shrunken log2 fold change meets or exceeds 0.08 for "RRIRMRPPRLPRPRPRPMTVPRP"
// result Fulfilled
